biological target: Human adrenergic α2B receptor (Homo sapiens, UniProt P18089); assay: Radioligand binding, adrenergic α2B (Protocol Group B); parameters: purchased Milipore (Millipore); settings: Protocol Group B; estimated Ki; read-out: Ki α2B
observation.type: Ki
Record the result as number plus unit.

Qu. Query Ki for Cc1ccc2c(c1)c1c(n2CC(C)(O)c2ccc(F)nc2)CCN2CCCC12 (single isomer, unassigned)
Ans. 1.4 nM

Report Ki for each item below.
1. CC(O)(Cn1c2c(c3cc(F)ccc31)C1CCCN1CC2)c1ccncc1 (single isomer, unassigned) [31a]
2. Cc1cc(Cl)c2c(c1)c1c(n2CC(C)(O)c2ccncc2)CCN2CCCC12 (single isomer, unassigned) [91b]
3. CC(O)(Cn1c2c(c3cc(F)ccc31)C1CCCN1CC2)c1ccncc1 (single isomer, unassigned) [31b]
4. Cc1cc(F)cc2c3c(n(CC(C)(O)c4cccnc4)c12)CC1CCCN1C3 (single isomer, unassigned) [76d]
5. Cc1ccc2c(c1)c1c(n2CC(O)c2ccncc2F)CCN2CCCC12 (single isomer, unassigned) [14a]
6. Cc1cc(F)cc2c3c(n(CC(O)c4ccncc4)c12)CCN1CCCC31 (single isomer, unassigned) [136b]
7. OC(Cn1c2c(c3cc(F)ccc31)C1CCCN1CC2)c1ccncc1 (single isomer, unassigned) [18b]
8. Cc1ccc2c(c1)c1c(n2CC(OC(=O)N2CCCC2)c2ccncc2)CCN(C)C1 (single isomer, unassigned)

Ans.
1. 2.2 nM
2. 0.93 nM
3. 2.6 nM
4. 4.55 nM
5. 6.5 nM
6. 2.45 nM
7. 1.03 nM
8. 3.6 nM

###

Molecular target: Human adrenergic α1B receptor (Homo sapiens, UniProt P35368)
Sequence (P35368 1-520): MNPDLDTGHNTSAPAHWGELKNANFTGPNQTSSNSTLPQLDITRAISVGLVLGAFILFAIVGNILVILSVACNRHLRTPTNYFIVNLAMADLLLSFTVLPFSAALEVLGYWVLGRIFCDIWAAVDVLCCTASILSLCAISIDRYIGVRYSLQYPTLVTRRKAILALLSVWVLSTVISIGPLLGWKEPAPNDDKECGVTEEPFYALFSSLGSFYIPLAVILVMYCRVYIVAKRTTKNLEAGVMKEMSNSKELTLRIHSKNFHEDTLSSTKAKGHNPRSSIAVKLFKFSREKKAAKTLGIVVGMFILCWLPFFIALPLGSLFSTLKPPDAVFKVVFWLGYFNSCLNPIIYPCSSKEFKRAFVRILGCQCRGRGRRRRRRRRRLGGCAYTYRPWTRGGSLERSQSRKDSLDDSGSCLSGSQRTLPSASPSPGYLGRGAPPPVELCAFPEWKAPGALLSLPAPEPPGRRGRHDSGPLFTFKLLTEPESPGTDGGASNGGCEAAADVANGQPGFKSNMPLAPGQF
Experiment: β-Arrestin GPCR functional assay, adrenergic α1B (Protocol B)
Details: β-arrestin, antagonist vs nor-epinephrine EC80
observation.type: log10(IC50) (log10 of the value in nM)
Each number you see is log10 of IC50, and the unit inside the log is nM.

Example entries and their recorded answers appear below.
Qu. Query log10(IC50) for Cc1ccc2c(c1)c1c(n2CC(C)(O)c2ccncc2)CCN2CCCC12 (single isomer, unassigned) [13a]
Ans. 2.00

Qu. Query log10(IC50) for Cc1cc(C)c2c(c1)c1c(n2CC(C)(O)c2ccncc2)CCN2CCCC12 (single isomer, unassigned) [19b]
Ans. 2.55

Qu. Query log10(IC50) for Cc1cc(F)c2c(c1)c1c(n2CC(O)c2ccncc2)CCN2CCCC12 (single isomer, unassigned) [137b]
Ans. 1.55

Qu. Query log10(IC50) for CC(O)(Cn1c2c(c3cc(Cl)cc(F)c31)C1CCCN1CC2)c1ccncc1 (single isomer, unassigned) [52a]
Ans. 2.17

Report log10(IC50) for each item below.
1. CCOC(Cn1c2c(c3cc(C)ccc31)CN(C)CC2)c1ccncc1 (single isomer, unassigned) [43b]
2. Cc1ccc2c(c1)c1c(n2CC(OC(=O)N2CCCC2)c2ccncc2)CCN(C)C1 (single isomer, unassigned)

Ans.
[3.04, 2.82]

Qu. Query log10(IC50) for Cc1cc(F)c2c(c1)c1c(n2CC(C)(O)c2ccncc2)CCN2CCCC12 (single isomer, unassigned) [81a]
Ans. 1.96

###

Molecular target: Human adrenergic α2B receptor (Homo sapiens)
Sequence (P18089 1-450): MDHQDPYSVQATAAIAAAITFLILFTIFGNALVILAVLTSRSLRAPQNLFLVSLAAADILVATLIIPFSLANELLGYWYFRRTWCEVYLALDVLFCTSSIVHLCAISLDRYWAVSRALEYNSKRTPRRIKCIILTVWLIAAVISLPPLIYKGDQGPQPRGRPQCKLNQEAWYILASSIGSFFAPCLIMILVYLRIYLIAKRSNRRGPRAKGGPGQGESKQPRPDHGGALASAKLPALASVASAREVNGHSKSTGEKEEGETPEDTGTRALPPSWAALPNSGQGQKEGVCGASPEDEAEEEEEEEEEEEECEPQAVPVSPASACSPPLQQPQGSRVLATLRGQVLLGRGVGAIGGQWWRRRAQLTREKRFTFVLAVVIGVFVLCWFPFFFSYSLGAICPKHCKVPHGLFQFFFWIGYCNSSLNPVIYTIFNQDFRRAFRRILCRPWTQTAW
Test: Radioligand binding, adrenergic α2B (Protocol Group B)
Parameters: purchased Milipore (Millipore)
Conditions: 30 nM compound; Protocol Group B; 0.03 µM
Label satisfied when Percentage inhibition of ligand binding, Adrenergic α2B (30 nM) >= 70%; otherwise not satisfied.

Qu. Threshold query (Percentage inhibition of ligand binding, Adrenergic α2B (30 nM) >= 70%) on CC(O)(Cn1c2c(c3cc(Cl)cc(F)c31)CN1CCCC1C2)c1ccncc1 (single isomer, unassigned) [86b]
Ans. not satisfied

More entries:
Qu. Threshold query (Percentage inhibition of ligand binding, Adrenergic α2B (30 nM) >= 70%) on Cc1ccc2c(c1)c1c(n2CC(C)(O)c2ccc(F)cc2)CC2CCC1N2C (single isomer, unassigned) [102d]
Ans. not satisfied

###

biological target: Human adrenergic α1B receptor (Homo sapiens, UniProt P35368); assay: Radioligand binding, adrenergic α1B (Protocol Group B); parameters: purchased Milipore (Millipore); conditions: 0.3 μM compound; Protocol Group B; read-out: Percentage inhibition of ligand binding, Adrenergic α1B (0.3 μM)
Label Criterion met when inhibition at 0.3 µM >= 30%; otherwise Criterion not met.

Example entries begin here.
Qu. Threshold query (inhibition at 0.3 µM >= 30%) on Cc1cc(F)c2c(c1)c1c(n2CC(C)(O)c2ccncc2)CCN2CCCC12 (single isomer, unassigned) [81c]
Ans. Criterion not met

Qu. Threshold query (inhibition at 0.3 µM >= 30%) on CC(O)(Cn1c2c(c3cc(F)ccc31)C1CCCN1CC2)c1ccncc1 (single isomer, unassigned) [31a]
Ans. Criterion met

Qu. Threshold query (inhibition at 0.3 µM >= 30%) on Cc1cc(F)c2c(c1)c1c(n2CC(C)(O)c2cccnc2)CCN2CCCC12 (single isomer, unassigned) [79b]
Ans. Criterion met

More entries:
Qu. Threshold query (inhibition at 0.3 µM >= 30%) on Cc1ccc2c(c1)c1c(n2CC(O)c2ccc(C(=O)NC3CC3)nc2)CCN(C)C1 (centres unmarked)
Ans. Criterion met

Qu. Threshold query (inhibition at 0.3 µM >= 30%) on OCc1ccc2c(c1)c1c(n2CC(O)c2ccncc2)CCN2CCCC12 (centres unmarked)
Ans. Criterion met

Qu. Threshold query (inhibition at 0.3 µM >= 30%) on Cc1ccc2c(c1)c1c(n2CC(OC(N)=O)c2ccncc2)CCN(C)C1 (single isomer, unassigned)
Ans. Criterion not met

Qu. Threshold query (inhibition at 0.3 µM >= 30%) on CC(O)(Cn1c2c(c3cc(F)cc(Cl)c31)C1CCCN1CC2)c1ccncc1 (single isomer, unassigned) [88a]
Ans. Criterion met

###

molecular target: Human adrenergic α2A receptor (Homo sapiens); assay: Radioligand binding, adrenergic α2A (Protocol Group B); set-up: purchased Milipore (Millipore); details: 0.1 μM compound; Protocol Group B; 0.1 µM
Sequence (P08913 whole entry): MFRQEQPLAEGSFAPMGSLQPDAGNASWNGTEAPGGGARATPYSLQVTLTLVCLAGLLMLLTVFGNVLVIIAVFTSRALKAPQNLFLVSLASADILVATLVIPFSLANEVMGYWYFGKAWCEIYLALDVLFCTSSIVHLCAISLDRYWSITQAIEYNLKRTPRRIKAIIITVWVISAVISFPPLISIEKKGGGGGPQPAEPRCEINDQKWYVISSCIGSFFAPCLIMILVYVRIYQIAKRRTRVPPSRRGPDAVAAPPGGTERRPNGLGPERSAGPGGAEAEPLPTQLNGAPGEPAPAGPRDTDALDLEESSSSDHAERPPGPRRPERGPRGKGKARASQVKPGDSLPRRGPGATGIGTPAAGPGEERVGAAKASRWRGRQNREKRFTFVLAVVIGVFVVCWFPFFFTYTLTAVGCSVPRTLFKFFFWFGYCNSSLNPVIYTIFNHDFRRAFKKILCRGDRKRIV
Field: Percentage inhibition of ligand binding, Adrenergic α2A (0.1 μM). Provide a value for each of the compounds that follow.
Record the result as number plus unit.

Qu. Query Percentage inhibition of ligand binding, Adrenergic α2A (0.1 μM) for Cc1cc(F)cc2c3c(n(CC(O)c4ccncc4)c12)CCN1CCCC31 (single isomer, unassigned) [136b]
Ans. 45%

Qu. Query Percentage inhibition of ligand binding, Adrenergic α2A (0.1 μM) for CCOC(Cn1c2c(c3cc(C)ccc31)CN(C)CC2)c1ccncc1 (single isomer, unassigned) [43a]
Ans. 46%

Report Percentage inhibition of ligand binding, Adrenergic α2A (0.1 μM) for each item below.
1. Cc1cc(F)cc2c3c(n(CC(C)(O)c4ccncc4)c12)CCN1CCCC31 (single isomer, unassigned) [77b]
2. Cc1cc(C)c2c(c1)c1c(n2CC(C)(O)c2cccnc2)CCN2CCCC12 (single isomer, unassigned) [44d]
3. CN1CCc2c(c3cc(C(F)(F)F)ccc3n2CC(OC2CCCC2)c2ccncc2)C1 (single isomer, unassigned) [60a]
4. Cc1ccc2c(c1)c1c(n2CC(C)(O)c2ccnc(F)c2)CCN2CCCC12 (single isomer, unassigned) [48b]

Ans.
5%
−17%
26%
83%

Qu. Query Percentage inhibition of ligand binding, Adrenergic α2A (0.1 μM) for Cc1ccc2c(c1)c1c(n2CC(OCC2CCC2)c2ccncc2)CCN2CCCC12 (single isomer, unassigned) [138c]
Ans. 0%

Values compiled from patent US20150315188A1.
